Molecular target: T1, 4H3112-bH
T1 chain: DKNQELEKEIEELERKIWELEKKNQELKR
Assay: two-hybrid library CCNG1;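 also: natural log of median RNA to DNA barcode read ratio; higher means stronger binding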
READOUT_LABEL: interaction score

Field: example entries. Status: answers known.
{"BINDER": "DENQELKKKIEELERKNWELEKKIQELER [4H1845-bH]", "interaction score": -0.698}
{"BINDER": "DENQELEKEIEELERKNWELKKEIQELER [4H1081-bH]", "interaction score": -0.896}

[I] DKIQELKKEIEELKRKNWELEKEIQELER [4H2673-bH]
[II] DKIQELKKEIEELKRKIWELKKENQELER [4H2667-bH]
From the items above, decide which of I and II has the lower interaction score reading. Bench note: the answer is the label of the chosen record. I
(I: -0.64, II: -0.422)

Cited source for all entries: paper PMC10397247
